Molecular target: intracellular phosphorylation of EGFR (Tyr1068) in PC-9 cells (Homo sapiens, UniProt P00533, DEL746-750)
Sequence (P00533 with tags, fused parts or gaps DEL746-750): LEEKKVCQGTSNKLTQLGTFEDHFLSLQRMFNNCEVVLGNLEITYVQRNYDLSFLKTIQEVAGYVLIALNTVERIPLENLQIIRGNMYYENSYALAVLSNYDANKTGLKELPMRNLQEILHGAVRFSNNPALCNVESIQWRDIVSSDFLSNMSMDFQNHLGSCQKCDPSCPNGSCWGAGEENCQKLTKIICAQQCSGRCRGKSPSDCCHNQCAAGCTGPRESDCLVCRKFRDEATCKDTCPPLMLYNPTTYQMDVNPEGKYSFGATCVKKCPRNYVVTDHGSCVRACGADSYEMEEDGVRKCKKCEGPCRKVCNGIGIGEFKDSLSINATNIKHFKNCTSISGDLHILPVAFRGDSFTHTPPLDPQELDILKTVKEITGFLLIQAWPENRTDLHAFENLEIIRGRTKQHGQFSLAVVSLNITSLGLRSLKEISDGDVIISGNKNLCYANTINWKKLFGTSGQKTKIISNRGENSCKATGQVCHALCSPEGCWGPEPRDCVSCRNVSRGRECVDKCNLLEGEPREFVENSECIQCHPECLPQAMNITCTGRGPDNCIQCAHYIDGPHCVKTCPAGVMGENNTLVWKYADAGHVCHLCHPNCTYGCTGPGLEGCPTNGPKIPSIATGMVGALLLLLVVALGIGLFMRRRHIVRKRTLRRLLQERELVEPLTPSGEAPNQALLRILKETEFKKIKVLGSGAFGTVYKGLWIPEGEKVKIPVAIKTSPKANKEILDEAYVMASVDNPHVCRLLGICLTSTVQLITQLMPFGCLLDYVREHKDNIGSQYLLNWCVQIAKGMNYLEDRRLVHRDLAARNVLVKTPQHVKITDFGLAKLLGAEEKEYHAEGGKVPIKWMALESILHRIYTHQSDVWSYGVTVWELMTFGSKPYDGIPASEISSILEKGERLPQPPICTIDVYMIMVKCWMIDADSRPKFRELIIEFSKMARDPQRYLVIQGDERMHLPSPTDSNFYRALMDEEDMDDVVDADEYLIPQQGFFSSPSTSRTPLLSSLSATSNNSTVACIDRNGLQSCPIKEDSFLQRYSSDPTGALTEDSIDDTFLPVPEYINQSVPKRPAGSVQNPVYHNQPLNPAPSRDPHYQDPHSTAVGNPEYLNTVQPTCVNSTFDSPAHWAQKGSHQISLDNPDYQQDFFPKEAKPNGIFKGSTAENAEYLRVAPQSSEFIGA
Assay: PC-9 pEGFR AlphaLISA assay
Settings: 4 hours incubation, read-out: Phos EGFR PC9 IC50
pIC50: −log10 of the molar value.
experimental-endpoint: pIC50

In the examples that follow, each entry is paired with its recorded pIC50.
In [3]: df
Out[3]:
                                   compound  experimental_endpoint  reported_value
0  Cn1cc(-c2cc(OCC(=O)N3CC4(COC4)C3)c3c(Nc4ccc5ncsc5c4)ncnc3c2)cn1 [Example 270]                  pIC50    7.30 to 8.00
1  CN1CC[C@H](Oc2cc(-c3cnn(C)c3)cc3ncnc(Nc4ccc5ncsc5c4)c23)C[C@@H]1CO [Example A08]                  pIC50    7.30 to 8.00
2  COc1nn(C)cc1-c1cc(OC2CCN(C3COC3)CC2)c2c(Nc3ccc4ncsc4c3)ncnc2c1 [Example 306]                  pIC50          ≥ 8.00
3  CCC(=O)N1CCC(Nc2cc3c(Nc4ccc5ncsc5c4)ncnc3cc2-c2ccn(C)n2)CC1 [Example 257]                  pIC50          ≥ 8.00
4  CN(C)C[C@H](Oc1cc(-c2cnn(C)c2)cc2ncnc(Nc3ccc4ncsc4c3)c12)C(F)(F)F (single isomer, unassigned) [Example 178]                  pIC50          ≥ 8.00
5  Cn1cc(-c2cc(OC3CC3)c3c(Nc4ccc5ncsc5c4F)ncnc3c2)cn1 [Example 76]                  pIC50    7.30 to 8.00

Challenge: Data request, read-out pIC50, for Cn1cc(-c2cc(OCCN3CCC3)c3c(Nc4ccc5ncsc5c4)ncnc3c2)cn1 [Example 409]
Response given: 7.30 to 8.00
